# Tested on: UACC-62 melanoma
# protocolSummary: NCI-60 one-dose screen, 48 h
# conditionDescription: 10 µM unless noted
This is part of a sample that, as a whole, favours compounds with a hit. Of some 83,000 tested, about 20% had one in any assay. Active and inactive are the calls of the source. Rule for the calls: active = growth percent below 10; inactive = the rest.
Possible outcomes: active, inactive

- compound: "Cc1ccc(OCCn2ccc(=O)n(CCOc3ccc(Cl)cc3C(=O)c3cc(C)cc(C)c3)c2=O)cc1"
  classLabel: "inactive"
- compound: "COC(c1ccccc1)C(Br)C(=O)c1ccccc1 (stereo not given)"
  classLabel: "inactive"
- compound: "CCCC(=O)NNc1[nH]c(-c2cc(OC)c(OC)c(OC)c2)cc1C(=O)OCC"
  classLabel: "inactive"
- compound: "CC(C)OC(=O)Nn1cnc2ccccc21"
  classLabel: "inactive"
- compound: "COC1=CC(c2ccc[nH]2)=N/C1=C\\c1[nH]c(C)c(C(=O)CCCCC(=O)NC(C)(C)C)c1C"
  classLabel: "inactive"
- compound: "CC1=C(C)C(=O)C(C(C)C2=C(C)C(=O)C(C)=C(C)C2=O)=C(C)C1=O"
  classLabel: "inactive"
- compound: "COc1ccc(-c2cn3ccnc3c(-c3ccc4ncn(C5CCCCC5)c4c3)n2)cc1"
  classLabel: "inactive"
- compound: "Nc1ccc(S(=O)(=O)c2ccc(NO)cc2)cc1"
  classLabel: "inactive"
- compound: "Cc1nc(NC(=O)NC2CCCCC2)sc1C(=O)NN"
  classLabel: "inactive"
- compound: "CC(=O)c1nn(-c2ccc(C)cc2)cc1C(=O)c1cc2c(ccc3ccccc32)oc1=O"
  classLabel: "inactive"
- compound: "O=c1c2c(c3ccccc3n1-c1ccccc1)NC(=S)NC2c1ccccc1 (stereo not given)"
  classLabel: "inactive"
- compound: "C=C(C)C(C(=O)OCC)(C(=O)OCC)C(C)C"
  classLabel: "inactive"
- compound: "COc1cccc2c1n([O-])c1cccc(OC)c1[n+]2=O"
  classLabel: "inactive"
- compound: "NNC(=S)N1N=C(c2cc3ccccc3o2)CC1c1c[nH]c2ccccc12 (stereo not given)"
  classLabel: "inactive"
- compound: "CCOC(=O)NNc1[nH]c(-c2ccc(OC)cc2)cc1C#N"
  classLabel: "inactive"
- compound: "O=Nc1c(-c2c(O)[nH]c3cc(Br)ccc23)[nH]c2ccccc12"
  classLabel: "inactive"
- compound: "CCCCCCCCC1OC1CCCCCCCC(=O)O (stereo not given)"
  classLabel: "inactive"
- compound: "CC[n+]1c(C)ccc2cc(C)ccc21"
  classLabel: "inactive"
- compound: "COc1cc2ncnc(Nc3ccc4c(cnn4C(=O)Nc4ccccc4)c3)c2cc1OC"
  classLabel: "inactive"
- compound: "O=c1c(N=Nc2nccs2)c(-c2ccccc2)[nH]n1-c1nc(-c2ccccc2)cs1"
  classLabel: "inactive"
- compound: "O=c1c2c(c3ccccc3n1-c1ccccc1)NC(=S)NC2c1ccc(Cl)cc1 (stereo not given)"
  classLabel: "inactive"
- compound: "CC(=O)OC1/C=C\\CC/C=C\\C1 (stereo not given)"
  classLabel: "inactive"
- compound: "CC(=O)N1CCN(CCNC(=O)n2cc(-c3ccncc3)c(-c3ccc(O)c(Cl)c3)n2)CC1"
  classLabel: "inactive"
- compound: "BrCCCOc1ccc(Oc2ccc(OCCCBr)cc2)cc1"
  classLabel: "inactive"
- compound: "CC(=O)Nc1nc(C)c(C(=O)NNC(=O)Nc2ccccc2)s1"
  classLabel: "inactive"
- compound: "CC(=O)OCC(=O)[C@@]1(O)[C@H](C)C[C@H]2[C@@H]3C=C(C)C4=Cc5c(cnn5-c5ccc(F)cc5)C[C@]4(C)[C@H]3[C@@H](O)C[C@@]21C"
  classLabel: "active"
- compound: "COC(=O)[C@@H]1[C@H](O)[C@H](C)[C@H](O)[C@H](C)/C=C\\C=C(C)C(=O)Nc2c(C)c(OC(C)=O)c3c(c2O)C(=O)C(C)=C2OCOC(=C23)C(C)=C[C@@](C)(O)[C@H](O)[C@@H](C)[C@H]1OC(C)=O"
  classLabel: "inactive"
- compound: "CC1(C)NCCC[C@]2(C)[C@H]3CC=C4[C@@H]5C[C@](C)(COC(=O)c6ccccc6C(=O)O)CC[C@]5(C)CC[C@@]4(C)[C@]3(C)CC[C@@H]12"
  classLabel: "inactive"
- compound: "O=C(Nc1ccc(-n2cc(-c3ccncc3)c(-c3ccc(Cl)c(O)c3)n2)cc1)c1ccc(Cl)c(C(F)(F)F)c1"
  classLabel: "active"
- compound: "Oc1ccccc1/C=N/N=C\\c1ccccc1Cl"
  classLabel: "inactive"
- compound: "COc1cc(-c2nn(-c3ccc(NC(=O)c4ccc(Cl)c(C(F)(F)F)c4)cc3)cc2-c2ccncc2)ccc1Cl"
  classLabel: "active"
- compound: "CCOC(=O)c1cc(C(=O)c2ccc(Br)cc2)n2cc(C)cc(C)c12"
  classLabel: "inactive"
- compound: "O=C1c2cc([N+](=O)[O-])ccc2-c2cc(Cl)c(NC(=O)C(F)(F)F)cc21"
  classLabel: "inactive"
- compound: "COc1cccc(Cn2cc3c(c2)-c2oncc2CC3)c1"
  classLabel: "inactive"
- compound: "CC(=N\\N=C(N)N)/C(=N/N=C(N)N)c1ccccc1"
  classLabel: "inactive"

Where do the numbers come from? From PubChem BioAssay (NCI).
